# Test system: secondary alcohol dehydrogenase
# Test Details: Substrate specificity, oxidation reaction
# Assay type: biochemical, Geotrichum candidum IFO 4601
# Condition Description: substrate 50 mM, coenzyme NAD+, (S)-1,3-butanediol-oxidizing activity = 100
The following compounds are listed with their measured Relative activity values.
Measured Attribute: Relative activity (%)

INSERT INTO results (compound, quantitative_readout) VALUES
  ('COC(=O)C[C@@H](C)O [methyl (R)-3-hydroxybutyrate]', 22.1),
  ('C[C@@H](O)c1ccccc1 [(R)-1-phenylethanol]', 19.2),
  ('COC(=O)C[C@H](C)O [methyl (S)-3-hydroxybutyrate]', 138),
  ('C[C@H](O)CO [(S)-1,2-propanediol]', 23.8),
  ('OCC(O)CO [glycerol]', 0),
  ('C[C@H](O)CCO [(S)-1,3-butanediol]', 100),
  ('C[C@@H](O)CO [(R)-1,2-propanediol]', 10.4),
  ('C[C@H](O)c1ccccc1 [(S)-1-phenylethanol]', 267);
